# METHOD NOTES: Toxicity liver stage against HepG2, at 10uM
# Type: cell-based
# Parameters: test concentration 10 uM, cell line HepG2-A16-CD81EGFP
# RECORDED CONDITIONS: human, HepG2-A16-CD81EGFP cells; read-out: INHIBITION
Catalogue of compounds with associated cytotoxicity at 10 µM
Could you kindly put the unit after your number?

// known answers, use as guide
CC(CCSc1ccccc1)N1CCN(C(=O)c2ccccc2O)CC1 (centres undefined) | 8.97%
Cc1cc(C)n(CC(=O)N2CCCCC2CCN(C)C)c(=O)n1 (centres undefined) | -14.7%
OC[C@H]1CN2CCN(c3ccccn3)C[C@@H]2[C@@H]1c1ccccc1 | -0.0603%
CCN1CCN(C(=O)C2CCOC2)c2ccccc21 (centres undefined) | 2.54%
CCN1CCN(c2ccc(CNC(=O)c3ccccc3F)cn2)CC1 | -16.4%

Q. For the compound CNc1cc(C)nc(N2C[C@H](C3CC3)[C@@H](N)C2)n1 , give its measured cytotoxicity at 10 µM value.
A. -4.7%

Q. For the compound CC(=O)N(C)Cc1cccc(NC(=O)c2cnn(C)c2C)c1 , give its measured cytotoxicity at 10 µM value.
A. 3.5%

---

# METHOD NOTES: Toxicity liver stage against HepG2, at 10uM
# Format: cell-based
# Set-up: test concentration 10 uM, cell line HepG2-A16-CD81EGFP
# RECORDED CONDITIONS: human, HepG2-A16-CD81EGFP cells; read-out: INHIBITION
PROPERTY LABEL: cytotoxicity at 10 µM (%)
Report the figure in % without appending any unit label.

Q. For the molecule CC(=O)NCc1cc2n(n1)CCN(Cc1cc(-c3ccccc3)no1)C2 , give its measured cytotoxicity at 10 µM value.
A. 7.12

Q. For the molecule N#Cc1ccc(OCCN2CCc3cncnc3C2)cc1 , give its measured cytotoxicity at 10 µM value.
A. -9.96

Q. For the molecule CC(=O)Nc1ccc(SCC(O)COCc2ccccc2)cc1 (stereo unspecified) , give its measured cytotoxicity at 10 µM value.
A. 1.87

Q. For the molecule CCOC(=O)N1CCC(OC)c2ccccc2N(C)C(=O)C1 (stereo unspecified) , give its measured cytotoxicity at 10 µM value.
A. 7.58

Q. For the molecule CCCN1CCC(Nc2nc(C)ns2)CC1 , give its measured cytotoxicity at 10 µM value.
A. -8.92

Q. For the molecule CCC(C)n1cnc(S(=O)(=O)N(C)c2cccnc2N(C)C)c1 (stereo unspecified) , give its measured cytotoxicity at 10 µM value.
A. -3.08

---

# METHOD NOTES: Toxicity liver stage against HepG2, at 10uM
# Assay type: cell-based
# Parameters: test concentration 10 uM, cell line HepG2-A16-CD81EGFP
# RECORDED CONDITIONS: human, HepG2-A16-CD81EGFP cells; read-out: INHIBITION
Catalogue of compounds with associated cytotoxicity at 10 µM
Report the figure in % without appending any unit label.

// known answers, use as guide
CCOc1ccccc1C(=O)NC(CC(=O)O)c1cccs1 (stereo not drawn) | -11.4
CCN(CC1CCOC1)C(=O)c1ccn(-c2cc(C)ccc2OC)n1 (stereo not drawn) | 6.16
O=C(NCC1OCCc2cn(CC3CCOCC3)nc21)c1ccncc1 (stereo not drawn) | -78

Q. For the compound CN(Cc1ccc(C(=O)Nc2sccc2C#N)cc1)Cc1ccno1 , give its measured cytotoxicity at 10 µM value.
A. -1.65

Q. For the compound CC(C)CN1CCCC12CCN(c1nncs1)C2 (stereo not drawn) , give its measured cytotoxicity at 10 µM value.
A. 1.81

Q. For the compound CC(CS(C)(=O)=O)N(C(=O)c1ccc(Cl)s1)C1CC1 (stereo not drawn) , give its measured cytotoxicity at 10 µM value.
A. 1.51

Q. For the compound NC(=O)C1CN(C(=O)C2(c3ccc(F)cc3F)CCCC2)CCO1 (stereo not drawn) , give its measured cytotoxicity at 10 µM value.
A. -5.92

Q. For the compound O=S(=O)(C1CC1)N1C[C@H](Oc2ccccn2)[C@H]2OCCC[C@H]21 , give its measured cytotoxicity at 10 µM value.
A. -3.7
